Each item that follows carries a reported PBM binding z-score.
- Tested on: RARa homodimer (NR concentration 270 nM)
- TEST PROTOCOL: PBM binding z-score (relative to random genomic background probes); higher = stronger binding; sequences stand for … in GC…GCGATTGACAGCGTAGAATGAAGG

MACROMOLECULE SEQUENCE	PBM binding z-score
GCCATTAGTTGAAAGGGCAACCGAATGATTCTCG	-0.15
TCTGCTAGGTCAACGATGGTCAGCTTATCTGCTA	-0.672
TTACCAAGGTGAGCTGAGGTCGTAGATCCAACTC	-0.84
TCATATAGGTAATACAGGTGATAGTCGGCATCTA	1.73
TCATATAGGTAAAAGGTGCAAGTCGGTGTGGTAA	1.23
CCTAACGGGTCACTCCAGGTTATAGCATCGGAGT	0.233
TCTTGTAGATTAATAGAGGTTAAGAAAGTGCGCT	0.565
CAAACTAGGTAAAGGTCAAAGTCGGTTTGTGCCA	1.6
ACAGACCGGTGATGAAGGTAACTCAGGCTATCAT	0.27
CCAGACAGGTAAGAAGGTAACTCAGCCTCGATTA	0.51
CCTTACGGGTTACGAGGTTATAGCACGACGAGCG	0.573
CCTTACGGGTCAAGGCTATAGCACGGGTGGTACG	0.855

* * *

- Tested on: PPARg:RXRa IVT, anti-PPARg (NR concentration 270 nM, RXRa partner concentration 90 nM)
- TEST PROTOCOL: PBM binding z-score (relative to random genomic background probes); higher = stronger binding; sequences stand for … in GC…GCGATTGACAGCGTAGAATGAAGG
Kind request: treat 0.9 as inclusive, so PBM binding z-score at 0.9 or higher is 1, anything lower is -1.

MACROMOLECULE SEQUENCE	LABEL CLASS
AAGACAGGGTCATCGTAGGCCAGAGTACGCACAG	1
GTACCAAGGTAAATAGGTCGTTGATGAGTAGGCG	1
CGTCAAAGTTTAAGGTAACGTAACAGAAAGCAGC	-1
ACTAGCAGGCCAAGCGTCACTCAAGATTAGTCCG	-1
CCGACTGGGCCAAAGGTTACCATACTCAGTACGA	1
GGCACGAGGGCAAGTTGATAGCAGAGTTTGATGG	1
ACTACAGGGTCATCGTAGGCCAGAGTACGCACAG	1
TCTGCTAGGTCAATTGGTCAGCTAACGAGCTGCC	1
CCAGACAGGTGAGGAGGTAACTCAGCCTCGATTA	-1
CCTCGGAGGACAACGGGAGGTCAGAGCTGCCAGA	-1
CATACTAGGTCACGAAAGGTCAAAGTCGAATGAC	1
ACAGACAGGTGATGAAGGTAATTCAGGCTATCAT	-1

* * *

- Tested on: THRa:RXRa (NR concentration 90 nM, RXRa partner concentration 90 nM)
- TEST PROTOCOL: PBM binding z-score (relative to random genomic background probes); higher = stronger binding; sequences stand for … in GC…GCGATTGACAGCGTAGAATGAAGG
TEST READOUT: PBM binding z-score

MACROMOLECULE SEQUENCE	SYSTEM TESTED	EXPERIMENTAL RESULT
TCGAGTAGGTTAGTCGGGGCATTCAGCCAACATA	THRa:RXRa (NR concentration 90 nM, RXRa partner concentration 90 nM)	0.885
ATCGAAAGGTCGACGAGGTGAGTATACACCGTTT	THRa:RXRa (NR concentration 90 nM, RXRa partner concentration 90 nM)	3.84
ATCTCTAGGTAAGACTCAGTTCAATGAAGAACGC	THRa:RXRa (NR concentration 90 nM, RXRa partner concentration 90 nM)	1.29
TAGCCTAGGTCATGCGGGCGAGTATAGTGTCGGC	THRa:RXRa (NR concentration 90 nM, RXRa partner concentration 90 nM)	2.89
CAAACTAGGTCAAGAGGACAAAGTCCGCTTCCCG	THRa:RXRa (NR concentration 90 nM, RXRa partner concentration 90 nM)	3
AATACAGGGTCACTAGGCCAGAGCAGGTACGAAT	THRa:RXRa (NR concentration 90 nM, RXRa partner concentration 90 nM)	3.31
